Assay Method Text: NCI Yeast Anticancer Drug Screen. Data for the rad14 strain (AID 159);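 further: 0% = growth of vehicle-treated control cultures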
Assay Setup: S. cerevisiae rad14 strain growth inhibition; at 3.7 µM
About 79,000 compounds went through this panel and 15% of them were active in at least one assay; those are over-represented in the sample as a whole. Active and inactive are the calls of the source. No stated cut-off is given here; in the data, active means growth inhibition above about 70%; inactive means the rest.
Write down one outcome, taken from TRUE for active, FALSE for inactive

Req: Record lookup: outcome of this test for O=[N+]([O-])c1ccc(C(c2c[nH]c3ccccc23)c2c[nH]c3ccccc23)cc1 ?
Resp: TRUE

Req: Record lookup: outcome of this test for CCOP(=O)(OCC)/C(C#N)=C/c1ccc(-c2ccc(F)cc2F)o1 ?
Resp: FALSE

Req: Record lookup: outcome of this test for OC1(c2ccccc2)C2CC=CC2C1(c1ccccc1)c1ccccc1 (stereo not given) ?
Resp: FALSE

Req: Record lookup: outcome of this test for COc1ccc2nc(CCc3ccccc3)ccc2c1 ?
Resp: FALSE

Req: Record lookup: outcome of this test for CCCCCCC1OCC(O)C(OCCCC)O1 (stereo not given) ?
Resp: FALSE

Req: Record lookup: outcome of this test for CCN1CCC(O)(c2ccc(Oc3ccc(Cl)cc3)cc2)C(C(=O)c2ccc(Oc3ccc(Cl)cc3)cc2)C1 (stereo not given) ?
Resp: FALSE

Req: Record lookup: outcome of this test for O=C(c1cc(=O)c2ccc(O)cc2o1)c1ccc(Cl)cc1Cl ?
Resp: FALSE

Req: Record lookup: outcome of this test for COc1cc([N+](=O)[O-])c2ncccc2c1Br ?
Resp: FALSE

Req: Record lookup: outcome of this test for CCN(CC)CCCNc1ccc([N+](=O)[O-])c2nc3ccc(OC)cc3c(NCCCN(CC)CC)c12 ?
Resp: FALSE

Req: Record lookup: outcome of this test for O=C(Cc1ccccc1)NN1C(=O)C(Cl)C1c1cc(Br)cc(Br)c1O (stereo not given) ?
Resp: FALSE

---

Assay Method Text: NCI Yeast Anticancer Drug Screen. Data for the wt2 strain (AID 169);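 further: 0% = growth of vehicle-treated yeast cultures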
Assay Setup: S. cerevisiae wt2 strain growth inhibition; at 3.7 µM; active compounds read high
Procedure: Growth inhibition of yeast strains with defined genetic alterations is measured as a screen for potential anti-cancer activity. Selected strains with alterations in DNA damage repair or cell cycle control were exposed to compounds and growth inhibition was measured relative to vehicle treated controls. The strain used in this assay is wt2
The panel holds about 79,000 compounds, 15% with a hit somewhere; the sample as a whole holds those more often.
Give measured growth inhibition for each item. Keep answers brief.
# value in %; strip the unit string

The value of growth inhibition measured for the compound CCCCCCCCCCCNC=O turned out to be -39

The value of growth inhibition measured for the compound O=C1CSC(c2ccccc2)N1c1ccc(-c2ccc(-n3c(-c4ccccc4)nc4ccccc4c3=O)cc2)cc1 (configuration not stated) turned out to be -3

The value of growth inhibition measured for the compound O=[N+]([O-])c1ccc2nc(=S)[nH]n2c1 turned out to be -1

The value of growth inhibition measured for the compound COc1ccc2nc3cccc([N+](=O)[O-])c3c(NCCNCCN(C)C)c2c1 turned out to be -4

The value of growth inhibition measured for the compound Cc1ccc([N+](=O)[O-])c2c(NCCC[N+](C)(C)[O-])c3ccccc3nc12 turned out to be -4

The value of growth inhibition measured for the compound CCCCCCC=C(C(=O)OCC)C(=O)OCC turned out to be -3

The value of growth inhibition measured for the compound CN1CCN(C(=O)c2cccc3cccc(C(=O)O)c23)CC1 turned out to be -4

The value of growth inhibition measured for the compound O=c1[nH]c2c([N+](=O)[O-])cccc2c2ccccc12 turned out to be 6

The value of growth inhibition measured for the compound CCOP(=O)(OCC)/C(C#N)=C\c1cccc2ccccc12 turned out to be -2

The value of growth inhibition measured for the compound COC(=O)C1=C(C(=O)OC)CC(n2nnc(C(=O)OC)c2C(=O)OC)=CC1 turned out to be -2

The value of growth inhibition measured for the compound CC(C)Cc1ncc(CCCN=C(N)N)[nH]c1=O turned out to be 12

The value of growth inhibition measured for the compound O=c1c2ccccc2nc(-c2ccc(Cl)cc2)n1O turned out to be 96

The value of growth inhibition measured for the compound O=C1C=C(Br)C(=O)c2ccccc21 turned out to be 28

The value of growth inhibition measured for the compound Cc1cc(C)c2[s+]snc2c1 turned out to be 1

The value of growth inhibition measured for the compound CCN(CC)CC(=O)c1ccc2cc(Cl)c3ccccc3c2c1 turned out to be 24

The value of growth inhibition measured for the compound COc1ccc2nc3cccc([N+](=O)[O-])c3c(NCCNCCO)c2c1 turned out to be -1

The value of growth inhibition measured for the compound CC(C)(CN1CCCCC1)C(=O)/C=C/c1c(Cl)cccc1Cl turned out to be 28

The value of growth inhibition measured for the compound CC(CN(C)C)C(=O)/C=C/c1ccc(Cl)c(Cl)c1 (configuration not stated) turned out to be 6

The value of growth inhibition measured for the compound CNC(=S)N/N=C(/C)CCC/C(C)=N/NC(=S)NC turned out to be 58

The value of growth inhibition measured for the compound C[n+]1c(/C=C/c2ccc(/C=N/NC(=O)c3ccc(C(=O)N/N=C/c4ccc(/C=C/c5cn6ccccc6[n+]5C)cc4)cc3)cc2)cn2ccccc21 turned out to be 98

The value of growth inhibition measured for the compound CC(C(=O)N1C(=O)N(C(=O)C(C)C(O)c2ccccc2)C2CCCCC21)C(O)c1ccccc1 (configuration not stated) turned out to be -1

The value of growth inhibition measured for the compound O=[N+]([O-])c1cccc2nc3ccccc3c(NCCCN3CCCCC3)c12 turned out to be 39

The value of growth inhibition measured for the compound O=c1c2ccccc2nc(-c2cccc([N+](=O)[O-])c2)n1O turned out to be 49

The value of growth inhibition measured for the compound NC(N)=NC(N)=Nc1ccccc1 (tested in a mixture with another compound) turned out to be -1

The value of growth inhibition measured for the compound O=C(Oc1ccc([N+](=O)[O-])cc1)c1ccc([N+](=O)[O-])cc1 turned out to be -5

The value of growth inhibition measured for the compound CC(=O)/C(=C\c1ccc(Cl)c(Cl)c1)C(=O)C(C)CN(C)C (configuration not stated) turned out to be -6

The value of growth inhibition measured for the compound O=C1C=C(NCCc2cc(Br)c(O)c(Br)c2)C(=O)c2ncccc21 turned out to be 15

The value of growth inhibition measured for the compound CN(C)CCCn1c2c3ccccc3ccc2c2oc(=O)c3ccccc3c21 turned out to be -9

The value of growth inhibition measured for the compound c1ccc(-c2cc(C3CO3)c3ccccc3n2)cc1 (configuration not stated) turned out to be 1

The value of growth inhibition measured for the compound O=C(O)CNC(c1ccccc1)(c1ccccc1)c1ccccc1 turned out to be -20

The value of growth inhibition measured for the compound CN(C)CCNCCCNc1c2ccccc2nc2cccc([N+](=O)[O-])c12 turned out to be 1

The value of growth inhibition measured for the compound O=C1CCC(Cc2ccccc2)CN1 (configuration not stated) turned out to be 0

The value of growth inhibition measured for the compound O=C1C(/C=C/c2ccc(Cl)cc2)=NNC2N1N=C1NC(=O)C3(NN12)c1ccccc1-c1ccccc13 (configuration not stated) turned out to be -2

The value of growth inhibition measured for the compound Nc1ccc2cc(Br)ccc2c1Br turned out to be -8

The value of growth inhibition measured for the compound CCOc1ccc(N)c(S)c1 turned out to be 8

The value of growth inhibition measured for the compound CC(/C=C/c1ccc([N+](=O)[O-])o1)=N/N1CC(CN2CCOCC2)OC1=O (configuration not stated) turned out to be 11

The value of growth inhibition measured for the compound N#C/C(=C\NC(=S)Nc1ccc(S(N)(=O)=O)cc1)C(=O)c1ccc2ccccc2c1 turned out to be -1

---

Assay Method Text: NCI Yeast Anticancer Drug Screen. Data for the rad14 strain (AID 159);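 further: 0% = growth of vehicle-treated control cultures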
Assay Setup: S. cerevisiae rad14 strain growth inhibition; at 3.7 µM; active compounds read high
The panel holds about 79,000 compounds, 15% with a hit somewhere; the sample as a whole holds those more often.
Parameter Measured: growth inhibition (%)
# value in %; strip the unit string

The value of growth inhibition measured for the compound O=[N+]([O-])c1ccc(S(=O)(=O)Cc2ccccc2)c([N+](=O)[O-])c1 turned out to be 10

The value of growth inhibition measured for the compound O=C(C#Cc1ccccc1)Nc1ccccc1 turned out to be -9

The value of growth inhibition measured for the compound Cc1ccc(NC(Nc2ccc(C)cc2C)=C(C(Cl)=C(Cl)Cl)[N+](=O)[O-])c(C)c1 turned out to be 2

The value of growth inhibition measured for the compound CC(=O)CC(c1ccccc1)c1c(O)c2ccccc2oc1=O (stereo unspecified) turned out to be 0

The value of growth inhibition measured for the compound CC1=COC2=C(C)C(=O)C(=O)c3c(C)ccc1c32 turned out to be 17

The value of growth inhibition measured for the compound C[n+]1c(/C=C/c2ccc(/C=N/NC(=O)c3ccc(C(=O)N/N=C/c4ccc(/C=C/c5cn6ccccc6[n+]5C)cc4)cc3)cc2)cn2ccccc21 turned out to be 98

The value of growth inhibition measured for the compound CCOP(=O)(OCC)/C(C#N)=C/c1cccc(Oc2ccccc2)c1 turned out to be -39

The value of growth inhibition measured for the compound O=S(=O)(c1cccc(C(F)(F)F)c1)N1c2ccccc2-n2cccc2C1c1cccnc1 (stereo unspecified) turned out to be -17

The value of growth inhibition measured for the compound Cc1c(C(=O)/C=C/c2ccccc2[N+](=O)[O-])[n+](=O)c2ccccc2n1[O-] turned out to be 61

The value of growth inhibition measured for the compound COc1ccc2c3c1OC(C)C31CC(=O)CCC1CC2 (stereo unspecified) turned out to be 1

The value of growth inhibition measured for the compound CO[C@@]1([C@@H](Cl)c2ccccc2)C(=O)N(C)/C(=C\c2ccccc2)C(=O)N1C turned out to be 3

The value of growth inhibition measured for the compound Cc1cc(C)c2[s+]snc2c1 turned out to be 4

The value of growth inhibition measured for the compound CCC(=O)Nc1ccc(N=NN(C)C)cc1 turned out to be -7

The value of growth inhibition measured for the compound CN(CCOc1ccc(Cl)cc1)CCOc1ccc(Cl)cc1 turned out to be 25

The value of growth inhibition measured for the compound O=C1Nc2ccc(Br)cc2C1=Nc1ccc(Cl)cc1 turned out to be -62

The value of growth inhibition measured for the compound Clc1ccc(/C(=C\c2ccccc2)Cn2ccnc2)cc1 turned out to be 51

The value of growth inhibition measured for the compound CCCCCCCCCCCCCCN turned out to be 20

The value of growth inhibition measured for the compound COC(=O)c1ccccc1N=NNc1cccc(SC)c1 turned out to be -21

The value of growth inhibition measured for the compound CCOP(=O)(OCC)/C(C#N)=C\c1cccc2ccccc12 turned out to be -13

The value of growth inhibition measured for the compound CC1=NN(C(=O)CC(=O)NC(=O)/C=C\c2ccccc2)C(=O)C1N=Nc1ccc([N+](=O)[O-])cc1 (stereo unspecified) turned out to be 5

The value of growth inhibition measured for the compound O=[N+]([O-])c1ccc2[nH]c3c(-c4ccccc4)nccc3c2c1 turned out to be -1

The value of growth inhibition measured for the compound CC(=O)O[C@H]1CC[C@@]2(C)C(=CC[C@@H]3C2CC[C@]2(C)C(=O)NC(=O)CC32)C1 (stereo partly specified) turned out to be -27

The value of growth inhibition measured for the compound CC(C)(CN1CCCCC1)C(=O)CC(SCCS(=O)(=O)O)c1ccccc1 (stereo unspecified) turned out to be 9

The value of growth inhibition measured for the compound CC(=O)/C=C/c1cc([N+](=O)[O-])ccc1O turned out to be -22

The value of growth inhibition measured for the compound Oc1ccc(C2(c3ccc(O)cc3)CCCC2)cc1 turned out to be -16

The value of growth inhibition measured for the compound CCN(CC)CC(=O)c1ccc2cc(Cl)c3ccccc3c2c1 turned out to be 13

All values here come from PubChem BioAssay (NCI).
